- System: MDA-MB-231 breast
- assay.comment: NCI-60 one-dose screen, 48 h (100 = growth as untreated, 0 = no growth, -100 = all killed)
- conditions: 10 µM unless noted
Compounds without any hit were thinned out: in the full panel of roughly 83,000, 20% have a hit. The source made the active and inactive calls. Rule for the calls: active = growth percent below 10; inactive = the rest.
measurement.label: growth

Before answering, review these 2 worked examples.
compound	growth
O=C1c2cc3c(cc2-c2c1c1ccc(F)cc1c(=O)n2C[C@H](O)[C@H](O)[C@H](O)CO)OCO3	-1.24% (active)
COc1ccc(/C=C/C(=O)c2cc(O)ccc2O)cc1	77.4% (inactive)

# input for lookup
*Q* Report growth, nothing else, for this compound: C=CCSSC1N=CNc2nc[nH]c21 (configuration not stated)
*A* 39.8% (inactive)
